Reference for the values: paper PMC9340770

endpoint.label: IC50

Exam item: Identify the measured IC50 of Cc1c(C#N)cccc1[C@@H](C)Nc1nnc(C)c2cnc(N3CCOCC3)cc12 [Compound 32] for INSR (Homo sapiens, UniProt P06213).
Marked response: > 10 µM

----------
system: ADRB1 (Homo sapiens)
Sequence (P08588 whole entry): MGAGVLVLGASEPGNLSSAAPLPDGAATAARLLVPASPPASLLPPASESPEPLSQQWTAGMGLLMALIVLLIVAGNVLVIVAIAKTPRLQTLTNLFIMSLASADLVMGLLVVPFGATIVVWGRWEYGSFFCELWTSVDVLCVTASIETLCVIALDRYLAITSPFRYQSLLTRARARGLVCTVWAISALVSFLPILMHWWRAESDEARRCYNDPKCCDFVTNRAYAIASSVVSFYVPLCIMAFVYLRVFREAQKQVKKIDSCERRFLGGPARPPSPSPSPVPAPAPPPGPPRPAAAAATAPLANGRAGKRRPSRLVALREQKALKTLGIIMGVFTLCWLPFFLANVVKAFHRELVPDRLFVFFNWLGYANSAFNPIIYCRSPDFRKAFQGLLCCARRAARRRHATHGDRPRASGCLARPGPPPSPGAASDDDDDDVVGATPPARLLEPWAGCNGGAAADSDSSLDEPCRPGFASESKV
assay.notes: Safetyscan cAMP
assay.conditions: agonist mode, read-out: RC50 (EC50) ADRB1 Agonist
endpoint.label: EC50

Exam item: Quick one: EC50 for Cc1c(C#N)cccc1[C@@H](C)Nc1nnc(C)c2cnc(N3CCOCC3)cc12 [Compound 32] ?
Marked response: > 10 µM

----------
Please go through the items and note down their clearance.
assay.notes: in vivo
assay.conditions: CD-1, mouse, iv, 3 mg/kg, pH 5
Report the figure in mL/min/kg without appending any unit label.

Exam item: Endpoint output: clearance of Cc1c([C@@H](C)Nc2nnc(C)c3ccc(N4CCNCC4)cc23)cccc1C(F)(F)F . Value?
Marked response: 85

Exam item: Give the measured clearance of Cc1c([C@@H](C)Nc2nnc(C)c3cnc(N4CCNCC4)cc23)cccc1C(F)(F)F .
Marked response: 52

Exam item: Which clearance value is on record for Cc1c([C@@H](C)Nc2nnc(C)c3cnc(N4CCOCC4)cc23)cccc1C(F)(F)F ?
Marked response: 17
